Target: T1, human MSLN-R1-his protein (human, UniProt Q13421 296-390)
T1 construct: Region 1 of human mesothelin, made in HEK293E cells, His-tagged; also called human MSLN-R1 protein; hMSLN-R1-his; not shown: His tag
T1 chain: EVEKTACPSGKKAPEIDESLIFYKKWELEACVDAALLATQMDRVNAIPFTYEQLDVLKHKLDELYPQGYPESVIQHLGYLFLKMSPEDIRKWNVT
Test: ELISA on coated MSLN-R1; antibody 0.1 nM
quantity-kind: OD450 (OD450)
Record the value in OD450, omitting the unit from your answer.

Below, each entry is followed by its recorded OD450 result.
- binder: "S009-F8-28.23 (antibody, human IgG1, kappa, V domains shown) VH: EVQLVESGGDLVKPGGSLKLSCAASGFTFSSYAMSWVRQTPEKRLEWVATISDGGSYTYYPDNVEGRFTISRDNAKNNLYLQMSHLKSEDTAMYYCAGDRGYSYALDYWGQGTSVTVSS VL: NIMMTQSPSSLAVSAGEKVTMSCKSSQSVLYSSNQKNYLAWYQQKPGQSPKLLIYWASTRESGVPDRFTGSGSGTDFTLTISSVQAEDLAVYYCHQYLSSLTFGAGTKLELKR"
  quantity-kind: "OD450"
  numeric-result: 0.04
- binder: "S009-F8-36.12 (antibody, human IgG1, kappa, V domains shown) VH: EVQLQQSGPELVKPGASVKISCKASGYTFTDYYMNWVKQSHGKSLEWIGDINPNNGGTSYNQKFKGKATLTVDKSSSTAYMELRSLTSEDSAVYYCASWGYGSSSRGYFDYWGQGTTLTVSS VL: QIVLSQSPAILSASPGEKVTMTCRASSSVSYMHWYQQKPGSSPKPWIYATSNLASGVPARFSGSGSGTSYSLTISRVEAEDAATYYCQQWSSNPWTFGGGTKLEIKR"
  quantity-kind: "OD450"
  numeric-result: 0.04
- binder: "S009-F8-18.9 (antibody, human IgG1, kappa, V domains shown) VH: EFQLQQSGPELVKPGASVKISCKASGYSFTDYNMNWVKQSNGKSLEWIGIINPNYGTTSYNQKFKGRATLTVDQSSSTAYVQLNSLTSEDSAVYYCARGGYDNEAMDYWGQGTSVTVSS VL: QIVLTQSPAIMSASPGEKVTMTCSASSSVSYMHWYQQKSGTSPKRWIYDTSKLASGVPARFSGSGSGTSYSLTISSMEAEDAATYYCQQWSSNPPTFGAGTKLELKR"
  quantity-kind: "OD450"
  numeric-result: 1.73

// query Consider the binder shown here: S009-F8-7.5 (antibody, human IgG1, kappa, V domains shown) VH: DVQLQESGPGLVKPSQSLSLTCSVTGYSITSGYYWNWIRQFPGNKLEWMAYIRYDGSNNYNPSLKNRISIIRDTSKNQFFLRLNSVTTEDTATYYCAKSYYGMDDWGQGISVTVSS VL: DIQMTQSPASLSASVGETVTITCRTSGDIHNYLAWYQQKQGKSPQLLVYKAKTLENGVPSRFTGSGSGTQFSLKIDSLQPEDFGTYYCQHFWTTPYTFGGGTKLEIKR What is its recorded OD450?
// result 0.05

// query What measured OD450 goes with S009-F8-19.21 (antibody, human IgG1, kappa, V domains shown) VH: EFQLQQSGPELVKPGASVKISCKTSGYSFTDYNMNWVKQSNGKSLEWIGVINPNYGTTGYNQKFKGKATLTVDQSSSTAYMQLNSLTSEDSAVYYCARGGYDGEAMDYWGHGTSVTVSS VL: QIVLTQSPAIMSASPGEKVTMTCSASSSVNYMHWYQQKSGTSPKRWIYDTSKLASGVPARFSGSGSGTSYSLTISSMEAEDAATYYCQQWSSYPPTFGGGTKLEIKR ?
// result 1.46
